target: NADPH oxidase 1 (Homo sapiens); experiment: inhibitors of human NADPH oxidase 1 (Nox1) (AID 1792); conditions: HT29 cells, luminol chemiluminescence ROS; at 6.7 µM
In all, about 16,000 compounds went through this assay and about 130 (0.81%) were called active. Rule as the data show it: active = inhibition above about 75%; inactive = the rest. For the sample, actives were picked, then their nearest neighbours and some compounds at random.
Outcomes: yes = active, no = inactive

{"molecule": "N#C/C(=C\\N1CCc2ccccc21)S(=O)(=O)c1ccc(C(F)(F)F)cn1", "category.label": "no"}
{"molecule": "Clc1ccc(CO/N=C/c2nc3ccccc3s2)cc1", "category.label": "no"}
{"molecule": "O=C(c1ccc(C#Cc2ccccc2)o1)N1CCCCC1", "category.label": "no"}
{"molecule": "CCCCNC(=O)OCCSCCS(=O)(=O)c1ccc(Cl)cc1", "category.label": "no"}
{"molecule": "O=C(O)CC(CC(=O)O)c1ccc(C(F)(F)F)cc1", "category.label": "no"}
{"molecule": "CCCCOC(=O)c1ccc(-c2ccccn2)s1", "category.label": "no"}
{"molecule": "O=C1C=C(NNc2ccccc2)CCC1", "category.label": "no"}
{"molecule": "Oc1c(Cl)c(Cl)c(Cl)c2ccccc12", "category.label": "no"}
{"molecule": "CSc1ccc(C(F)(F)F)cc1NC(=S)Nc1ccccc1", "category.label": "no"}
{"molecule": "COc1ccc(OC)c(CCCc2cc(OC)ccc2OC)c1", "category.label": "no"}
{"molecule": "Cc1ccc(OC(=O)c2nn(-c3ccccc3)nc2C)c([N+](=O)[O-])n1", "category.label": "no"}
{"molecule": "N#Cc1nccnc1N1CCN(C(=O)c2ccccc2)CC1", "category.label": "no"}
{"molecule": "CC(=O)Nc1cccc(-n2nnc(SCC(=O)c3cc(-c4ccccc4)no3)n2)c1", "category.label": "no"}
{"molecule": "O=[N+]([O-])c1ccc(N2CCOCC2)cc1", "category.label": "no"}
{"molecule": "Cn1nnnc1SCC(=O)Nc1ccc(OC(F)(F)F)cc1", "category.label": "no"}
{"molecule": "N#CCCN(CCc1ccccn1)S(=O)(=O)c1ccc2c(c1)CCO2", "category.label": "no"}
{"molecule": "COc1cccc(NC(=S)NNC(=S)NC2CC3CCC2C3)c1 (stereo not given)", "category.label": "yes"}
{"molecule": "N#Cc1ccc(N2CCN(C(=O)c3ccco3)CC2)cc1", "category.label": "no"}
{"molecule": "COc1cccc(NC(=S)N(CCC#N)C2CCCCC2)c1", "category.label": "no"}
{"molecule": "N/C(=N\\OS(=O)(=O)c1ccc(C(F)(F)F)cc1)C1CSCCS1 (stereo not given)", "category.label": "no"}
{"molecule": "COc1ccc2c(OC(C)=O)coc2c1", "category.label": "no"}
{"molecule": "CCOC(=O)CC(=O)CSc1nnc(N)s1", "category.label": "no"}
{"molecule": "N/C(Cc1ccc(F)cc1F)=N\\OC(=O)c1cccc(C(F)(F)F)c1", "category.label": "no"}
{"molecule": "COc1cc(C=C(C#N)C#N)cc(OC(C)=O)c1OC(C)=O", "category.label": "yes"}
{"molecule": "CCOC(=O)c1c[nH]n2c(=O)c3c(nc12)CCC3", "category.label": "no"}
{"molecule": "FC(F)(F)c1ccc(/C=N/Nc2nccc(C(F)(F)F)n2)cc1", "category.label": "no"}
{"molecule": "FC(F)(F)c1cccc(-n2c(-c3ccncc3)n[nH]c2=S)c1", "category.label": "no"}
{"molecule": "COC(=O)c1ccccc1-c1c2ccc(=O)cc-2oc2cc(O)ccc12", "category.label": "no"}
{"molecule": "CC1(C)CC(=O)c2c(NCc3ccco3)sc(C#N)c2C1", "category.label": "no"}
{"molecule": "O=S(=O)(c1ccc(Cl)cc1)n1nccc1/C=C/c1cccs1", "category.label": "no"}
{"molecule": "O=C(O)CC(CC(=O)Oc1ccccc1N1CCCCC1)c1ccccc1 (stereo not given)", "category.label": "no"}
{"molecule": "CC(OC(=O)c1cccc(Cl)c1)c1ccc[n+](C)c1 (stereo not given)", "category.label": "no"}
{"molecule": "Cc1c(S(=O)(=O)c2ccc(Cl)cc2)csc1C(=O)Nc1ccc2c(c1)OCCO2", "category.label": "no"}
{"molecule": "O=C(Oc1ccccc1N1CCCCC1)c1sc2ccccc2c1Cl", "category.label": "yes"}
{"molecule": "COc1ccc(NC(=S)Nc2ccc(OC)cc2)cc1", "category.label": "no"}
